Listed here are compounds together with their documented TGI.
- System: T-47D breast
- experiment: NCI tumour cell line growth inhibition, 48 h

Here is how some compounds turned out for TGI.
O=c1[nH]cnc2c(C3OC(CO)C(O)C3O)[nH]nc12 (centres undefined) :: > 100 µM
Cc1cc(S(=O)(=O)Nc2nc(N)n(-c3cnc4ccccc4n3)n2)c(S)cc1Cl :: > 100 µM
CS(=O)(=O)c1ccc(N/N=C/c2c(-c3ccc(S(C)(=O)=O)cc3)[nH]c3ccc(F)cc23)cc1 :: > 50 µM
N#Cc1c(C#N)c(-c2cccc([N+](=O)[O-])c2)n(-c2ccccc2)c1N :: > 100 µM

query: I have this compound here, "C=C1C(=O)O[C@@H]2[C@H]1CC[C@H](C)[C@]1(O)CCC(=O)[C@@]21C" , and I need its recorded TGI.
result: > 10 µM

query: # lookup: TGI of COc1ccccc1C1C2=C(COC2=O)OC(C)(C)Oc2cc3c(cc21)OCO3 (centres undefined)
result: > 100 µM

query: Look up TGI for this compound: "O=C(NO)c1cccc(OCc2ccc(Br)cc2)c1"
result: 23.9 µM

query: Using the record for "COC(=O)c1cc(C)ccc1/C=C1\Cc2cc(C)c(C)cc2C1=O" , report its TGI.
result: > 100 µM

query: Looking for the measured TGI of CC1=CC(C)C(C)N(CCNC(=O)Nc2ccccc2)c2ccccc21 (centres undefined) , can you help?
result: 61.2 µM
